Recorded values, source ChEMBL document CHEMBL5724914.

- protocol.notes: The drug is tested on Z-013 corresponding to rabbit gut metagenome with ENA study accession number: PRJEB37062 and ENA sample accession number: ERS12561813 for biotransformation under anaerobic condition. The drug concentrations were measured over 9 timepoints collected between 0 and 24 hours of incubation by liquid-chromatography-coupled mass spectrometry (LC–MS); further: call rule not given here
- assay.conditions: 2 µM
assay.endpoint: Bacterial Biotransformation

Below, each entry is followed by its recorded Bacterial Biotransformation result.
compound	Bacterial Biotransformation
C[C@@H](c1ncncc1F)[C@](O)(Cn1cncn1)c1ccc(F)cc1F [VORICONAZOLE]	Compound NOT metabolized
Cc1cc2c(s1)Nc1ccccc1N=C2N1CCN(C)CC1 [OLANZAPINE]	Compound NOT metabolized
COc1cc(NC(C)CCCN)c2ncccc2c1.O=P(O)(O)O.O=P(O)(O)O (configuration not stated) [PRIMAQUINE PHOSPHATE]	Compound NOT metabolized
C#C[C@]1(OC(C)=O)CC[C@H]2[C@@H]3CCC4=CC(=O)CC[C@@H]4[C@H]3CC[C@@]21C [NORETHINDRONE ACETATE]	Compound metabolized
COC(=O)C(c1ccccc1)C1CCCCN1 (configuration not stated) [METHYLPHENIDATE]	Compound NOT metabolized

Per the record, O=C1C(CC[S+]([O-])c2ccccc2)C(=O)N(c2ccccc2)N1c1ccccc1 (configuration not stated) [SULFINPYRAZONE] has Bacterial Biotransformation of Compound NOT metabolized

Bacterial Biotransformation for CC(=O)O[C@H]1C(=O)[C@@]2(C)[C@H]([C@H](OC(=O)c3ccccc3)[C@]3(O)C[C@H](OC(=O)[C@H](O)[C@@H](NC(=O)c4ccccc4)c4ccccc4)C(C)=C1C3(C)C)[C@]1(OC(C)=O)CO[C@@H]1C[C@@H]2O [PACLITAXEL] is Compound metabolized

* * *

- protocol.notes: The drug is tested on Z-013 corresponding to rabbit gut metagenome with ENA study accession number: PRJEB37062 and ENA sample accession number: ERS12561813 for biotransformation under anaerobic condition. The drug concentrations were measured over 9 timepoints collected between 0 and 24 hours of incubation by liquid-chromatography-coupled mass spectrometry (LC–MS)
- assay.conditions: 2 µM
assay.endpoint: Bacterial Biotransformation

Solved cases (5 shown):
compound	Bacterial Biotransformation
CN1CCC[C@@H]1CCO[C@](C)(c1ccccc1)c1ccc(Cl)cc1.O=C(O)/C=C/C(=O)O [CLEMASTINE FUMARATE]	Compound NOT metabolized
O=C1CCc2ccc(OCCCCN3CCN(c4cccc(Cl)c4Cl)CC3)cc2N1 [ARIPIPRAZOLE]	Compound metabolized
CN(C)CCOC(C)(c1ccccc1)c1ccccn1.O=C(O)CCC(=O)O (configuration not stated) [DOXYLAMINE SUCCINATE]	Compound NOT metabolized
OC(c1cc(C(F)(F)F)nc2c(C(F)(F)F)cccc12)C1CCCCN1 (configuration not stated) [MEFLOQUINE]	Compound NOT metabolized
CCN(CC)CCNC(=O)c1cc(S(C)(=O)=O)ccc1OC [TIAPRIDE]	Compound NOT metabolized

CN(C)C(=O)Oc1cc(OC(=O)N(C)C)cc(C(O)CNC(C)(C)C)c1 (configuration not stated) [BAMBUTEROL] has a reported Bacterial Biotransformation of Compound NOT metabolized

The measured Bacterial Biotransformation associated with CCN(CC)CCNC(=O)c1ccc(NC(C)=O)cc1 [ACECAINIDE] reads Compound NOT metabolized

response.value for CC(=O)Nc1ccc(OC(C)=O)cc1 [DIACETAMATE] (field: Bacterial Biotransformation) = Compound metabolized

Form: compound = COc1ccc2cc([C@H](C)C(=O)O)ccc2c1 [NAPROXEN] ; Bacterial Biotransformation = Compound NOT metabolized

For record CC(C)c1nc(N(C)S(C)(=O)=O)nc(-c2ccc(F)cc2)c1/C=C/[C@@H](O)C[C@@H](O)CC(=O)[O-].CC(C)c1nc(N(C)S(C)(=O)=O)nc(-c2ccc(F)cc2)c1/C=C/[C@@H](O)C[C@@H](O)CC(=O)[O-].[Ca+2] [ROSUVASTATIN CALCIUM] the listed Bacterial Biotransformation is Compound NOT metabolized

Recorded Bacterial Biotransformation (compound COc1ccc2c(c1)c(CC(=O)O)c(C)n2C(=O)c1ccc(Cl)cc1 [INDOMETHACIN] ): Compound NOT metabolized

* * *

- assay.conditions: human gut metagenome, 24 h, 2 µM
assay.endpoint: Bacterial Biotransformation

Recorded Bacterial Biotransformation, per entry:
molecule	Bacterial Biotransformation
CC(C)(C)NCC(O)c1cc(Cl)c(N)c(Cl)c1 (stereo unspecified)	Compound NOT metabolized
O=C1CN2Cc3c(ccc(Cl)c3Cl)N=C2N1 [ANAGRELIDE]	Compound NOT metabolized
C#C[C@]1(OC(C)=O)CC[C@H]2[C@@H]3CCC4=C[C@@H](OC(C)=O)CC[C@@H]4[C@H]3CC[C@@]21C [ETHYNODIOL DIACETATE]	Compound metabolized
CN(C)C(=O)Oc1cc(OC(=O)N(C)C)cc(C(O)CNC(C)(C)C)c1 (stereo unspecified)	Compound metabolized
Cc1ccccc1C(OCCN(C)C)c1ccccc1.O=C(O)CC(O)(CC(=O)O)C(=O)O (stereo unspecified) [ORPHENADRINE CITRATE]	Compound NOT metabolized
CNNCc1ccc(C(=O)NC(C)C)cc1	Compound metabolized
CCN(CC)CCOC(=O)C1(C2CCCCC2)CCCCC1	Compound metabolized
CCCN(CCC)CCc1cccc2c1CC(=O)N2	Compound NOT metabolized
CC(C)[C@H]1CC[C@H](C(=O)N[C@H](Cc2ccccc2)C(=O)O)CC1 [NATEGLINIDE]	Compound metabolized
CCOC(=O)C1=C(C)NC(C)=C(C(=O)OC)C1c1cccc([N+](=O)[O-])c1 (stereo unspecified)	Compound metabolized

So, N#Cc1ccc2[nH]cc(CCCCN3CCN(c4ccc5oc(C(N)=O)cc5c4)CC3)c2c1 ? Its Bacterial Biotransformation was Compound metabolized

Reported Bacterial Biotransformation of CN(C)CCC=C1c2ccccc2COc2ccccc21 [DOXEPIN] : Compound NOT metabolized

Briefly, Bacterial Biotransformation measured for CCOC(=O)C1=C[C@]2(CC)CCCN3CCc4c(n1c1ccccc41)[C@@H]32 : Compound metabolized

* * *

- protocol.notes: The drug is tested on WLS-007 corresponding to human gut metagenome with ENA study accession number: PRJEB37062 and ENA sample accession number: ERS12561742 for biotransformation under anaerobic condition. The drug concentrations were measured over 9 timepoints collected between 0 and 24 hours of incubation by liquid-chromatography-coupled mass spectrometry (LC–MS)
- assay.conditions: 2 µM
assay.endpoint: Bacterial Biotransformation

compound	result
COC1=C(OC)C(=O)C(CCCCCCCCCCO)=C(C)C1=O	Compound metabolized
CC(C)(C)NCC(O)c1cc(Cl)c(N)c(Cl)c1 (centres undefined)	Compound NOT metabolized
Cc1cc(C)cc(OCC2CNC(=O)O2)c1 (centres undefined)	Compound metabolized
COC(=O)C(c1ccccc1)C1CCCCN1 (centres undefined) [METHYLPHENIDATE]	Compound NOT metabolized
CC#C[C@]1(O)CC[C@H]2[C@@H]3CCC4=CC(=O)CCC4=C3[C@@H](c3ccc(N(C)C)cc3)C[C@@]21C	Compound metabolized
CCCCCNC(=N)N/N=C/c1c[nH]c2ccc(OC)cc12.O=C(O)/C=C\C(=O)O [TEGASEROD MALEATE]	Compound NOT metabolized

Entry under test: CC(C)NCC(O)COc1ccc(CC(N)=O)cc1 (centres undefined) . Its Bacterial Biotransformation was Compound NOT metabolized

Bacterial Biotransformation reading for C[C@@H](c1ncncc1F)[C@](O)(Cn1cncn1)c1ccc(F)cc1F : Compound metabolized

Summary for this compound, CN(CCOc1ccc(CC2SC(=O)NC2=O)cc1)c1ccccn1.O=C(O)/C=C\C(=O)O (centres undefined) [ROSIGLITAZONE MALEATE] : Bacterial Biotransformation is Compound metabolized

* * *

- assay.conditions: human gut metagenome, 24 h, 2 µM
assay.endpoint: Bacterial Biotransformation

compound	Bacterial Biotransformation
Nc1nnc(-c2cccc(Cl)c2Cl)c(N)n1	Compound NOT metabolized
COc1cc2nc(N3CCN(C(=O)C4COc5ccccc5O4)CC3)nc(N)c2cc1OC.CS(=O)(=O)O (stereo not drawn) [DOXAZOSIN MESYLATE]	Compound NOT metabolized
CCCC(C)(COC(N)=O)COC(=O)NC(C)C (stereo not drawn)	Compound NOT metabolized
CN(C)C(=O)Oc1cc(OC(=O)N(C)C)cc(C(O)CNC(C)(C)C)c1 (stereo not drawn)	Compound NOT metabolized

# compound COc1ccc(Cc2nccc3cc(OC)c(OC)cc23)cc1OC ; its Bacterial Biotransformation = Compound NOT metabolized

CC12CC3CC(C)(C1)CC(N)(C3)C2 [MEMANTINE] yielded Bacterial Biotransformation of Compound NOT metabolized

So for COCCCC/C(=N\OCCN)c1ccc(C(F)(F)F)cc1.O=C(O)/C=C\C(=O)O [FLUVOXAMINE MALEATE] , the logged Bacterial Biotransformation turned out to be Compound NOT metabolized

Field Bacterial Biotransformation (entry CC(=O)OCC(CCn1cnc2cnc(N)nc21)COC(C)=O ) reads Compound metabolized
